Biological target: Hck (UniProt P08631)
Sequence (P08631 whole entry, looked up): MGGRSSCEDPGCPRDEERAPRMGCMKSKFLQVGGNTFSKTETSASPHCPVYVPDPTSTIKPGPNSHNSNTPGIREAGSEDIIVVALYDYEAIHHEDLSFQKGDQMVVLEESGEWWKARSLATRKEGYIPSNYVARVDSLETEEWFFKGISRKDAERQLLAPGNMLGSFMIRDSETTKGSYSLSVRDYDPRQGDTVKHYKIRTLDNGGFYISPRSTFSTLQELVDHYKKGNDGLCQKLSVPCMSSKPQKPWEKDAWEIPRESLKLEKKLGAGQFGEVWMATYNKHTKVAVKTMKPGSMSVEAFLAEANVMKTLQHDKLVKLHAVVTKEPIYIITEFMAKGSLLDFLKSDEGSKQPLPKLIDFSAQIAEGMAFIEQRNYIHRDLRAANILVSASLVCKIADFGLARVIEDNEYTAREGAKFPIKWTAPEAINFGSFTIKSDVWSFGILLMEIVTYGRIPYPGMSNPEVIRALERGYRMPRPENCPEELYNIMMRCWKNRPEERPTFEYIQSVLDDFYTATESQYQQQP
Experiment: phosphorylation enrichment, bacterial display (enrichment ratio); higher = better substrate or ligand; peptides without Tyr show the background
Please provide measured phosphorylation enrichment for the entries that follow.
Number, no unit, nothing else.

phosphorylation enrichment for DNPAKYFILES [DPP10_Y512] is 0.51

phosphorylation enrichment for FDDIAYIQKTL [PIK3CA_Y1021_R1023Q] is 0.488

phosphorylation enrichment for RTLTHYKSAVK [ASNS_Y555] is 0.5

phosphorylation enrichment for EDSEFYRAFEE [CASQ2_Y179_K180R_YF] is 0.513

---

Please provide measured SH2 binding enrichment for the entries that follow.
Biological target: c-Src SH2;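 note: peptide library displayed on the E. coli surface as eCPX fusions, selected cells deep-sequenced, score is each peptide's frequency after selection divided by its frequency in the input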
Assay: SH2 binding enrichment of the phosphorylated peptide, bacterial display (enrichment ratio); higher = better substrate or ligand; peptides without Tyr show the background

SH2 binding enrichment for GIVEDYRPRFF [ACVRL1_Y421_P424R_YF] is 0.468

SH2 binding enrichment for IFGVSYDEFRF [CFTR_Y512_YF] is 0.897

SH2 binding enrichment for GDLTDYLMKIL [ACTA1_Y190_R185G] is 0.711

SH2 binding enrichment for DDKQPYEKKAA [HMGB1_Y144] is 0.606

SH2 binding enrichment for DEENFYQGSME [ASCC1_Y36_D34N] is 0.556

SH2 binding enrichment for SEKIVYGHLDD [ACO2_Y71] is 0.56

SH2 binding enrichment for ITNLLYHVVGG [GBA_Y412_W417G] is 0.953

SH2 binding enrichment for TEDAEYDVQSK [PTCHD3_Y335_P333A] is 0.644

SH2 binding enrichment for GKGGSYSKAEW [HLA-E_Y341] is 0.624

SH2 binding enrichment for FGVVGYLAIMF [RNF175_Y155] is 0.653

SH2 binding enrichment for KNCFKYYMSDD [ATRX_Y203] is 0.835

SH2 binding enrichment for FDDIAYIQKTL [PIK3CA_Y1021_R1023Q] is 0.626

---

Target: Fyn (UniProt P06241)
Sequence (P06241 whole entry, looked up): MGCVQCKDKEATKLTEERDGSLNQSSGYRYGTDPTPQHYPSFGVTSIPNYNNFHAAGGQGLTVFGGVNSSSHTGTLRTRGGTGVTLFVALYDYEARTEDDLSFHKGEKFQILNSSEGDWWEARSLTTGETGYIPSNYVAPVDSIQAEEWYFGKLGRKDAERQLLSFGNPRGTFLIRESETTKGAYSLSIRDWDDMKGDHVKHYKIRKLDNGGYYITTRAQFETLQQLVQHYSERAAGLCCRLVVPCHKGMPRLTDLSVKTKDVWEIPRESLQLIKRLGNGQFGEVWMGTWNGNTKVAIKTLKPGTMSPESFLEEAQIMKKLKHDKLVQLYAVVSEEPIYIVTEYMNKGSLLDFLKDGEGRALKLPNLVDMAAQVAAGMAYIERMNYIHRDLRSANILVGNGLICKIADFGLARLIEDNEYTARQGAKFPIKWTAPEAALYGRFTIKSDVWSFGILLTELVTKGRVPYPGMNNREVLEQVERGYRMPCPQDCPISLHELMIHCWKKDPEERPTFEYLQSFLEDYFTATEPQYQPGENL
Experiment: phosphorylation enrichment, bacterial display (enrichment ratio); higher = better substrate or ligand; peptides without Tyr show the background
Quantity Name: phosphorylation enrichment
Number, no unit, nothing else.

phosphorylation enrichment for RVILRYVNPGT [LAMA3_Y791] is 0.591

phosphorylation enrichment for RQQEVYLLYKQ [RARRES1_Y159_D158V] is 0.919

phosphorylation enrichment for IYQASYYRRGD [LTK_Y676_R673Q] is 7.6

phosphorylation enrichment for ILGLEYSLRVP [HELZ2_Y1304] is 0.515

phosphorylation enrichment for CLLHCYFSQIH [MCM3AP_Y873_R878H] is 0.43

phosphorylation enrichment for RRIHSYRGHLW [VHL_Y112] is 1.91

phosphorylation enrichment for VRFMANTDETF [F8_Y450_Y450N] is 0.408

phosphorylation enrichment for GPGLVYRVANK [FLNB_Y1833_G1834R] is 0.485

phosphorylation enrichment for CTTIPYNYMCN [TP53_Y234_H233P] is 0.47

phosphorylation enrichment for RREWFYEVIIV [BACE1_Y260_YF] is 0.649

phosphorylation enrichment for MEVGQYFFVKC [CYBB_Y324_I325F] is 0.551

phosphorylation enrichment for VMSGPYELKAL [IL1B_Y140] is 0.564

phosphorylation enrichment for LHSEAYLKFIE [PBRM1_Y1610_YF] is 0.856

phosphorylation enrichment for TDDMRYPMKSE [TGDS_Y302_N298D] is 0.43

phosphorylation enrichment for VFSATYHPDHW [EFCAB12_Y544_P541S_YF] is 0.472

phosphorylation enrichment for RELGEYGLQAF [ALDH2_Y497_YF] is 0.775

phosphorylation enrichment for NPQKSYFIRLY [WAS_Y83] is 0.372

phosphorylation enrichment for RIGRKYKRVRF [F8_Y442_K444R] is 1.35

phosphorylation enrichment for GIYSGYDDAWD [POLR1C_Y36_N32I] is 7.64

phosphorylation enrichment for PYRSIYFSSPK [MPG_Y75] is 1.03

phosphorylation enrichment for TEALYYTDDTA [ADPRS_Y75] is 2.63

phosphorylation enrichment for DFKIIYIVPMR [SNRNP200_Y540_A542V] is 0.412

phosphorylation enrichment for KERNQYGEVMV [MMP21_Y347] is 1.39

phosphorylation enrichment for IKRIAYEFVEM [ADA_Y84] is 0.438

phosphorylation enrichment for EEHIPYTHMNG [INSR_Y1361] is 0.451

phosphorylation enrichment for MKGDFYCFLAE [YWHAG_Y131_R132C_YF] is 0.456

phosphorylation enrichment for LLANAYIFVVQ [L1CAM_Y418_YF] is 0.606

phosphorylation enrichment for RQRTAYFSLNT [CDH1_Y68_D72N] is 0.699

phosphorylation enrichment for RPAPQYPHQVP [ADAM12_Y895] is 0.715

phosphorylation enrichment for DGTGRYLCNAC [GATA5_Y208_H207R] is 0.424

phosphorylation enrichment for DLVLQYLRVPL [F9_Y371_A366D] is 0.518

phosphorylation enrichment for TLEKYYFAFPG [SLC1A1_Y51_F50Y] is 4.5

phosphorylation enrichment for ETALHYIHDGI [GATD3A_Y250] is 0.433

phosphorylation enrichment for VDSNPYSRLMA [UBA5_Y53] is 0.756

phosphorylation enrichment for ESLRPYDVMDV [KCNQ2_Y562] is 0.668

phosphorylation enrichment for NTGDYCDLYGG [PTPN11_Y63_Y63C] is 2.26

phosphorylation enrichment for NHRNQYQALKP [CLSPN_Y887] is 0.335

phosphorylation enrichment for REGAKYVSHGA [ASS1_Y113] is 0.378

phosphorylation enrichment for EFITRYIASLK [PSMA7_Y110_YF] is 0.495

phosphorylation enrichment for WDLPEYSFKDP [ITGA3_Y237_S235P_YF] is 3.1

phosphorylation enrichment for LRFDSYSSFCN [SLC20A2_Y433_YF] is 0.464

phosphorylation enrichment for NVADHYRVYKP [ATP6V0D2_Y271_G272R] is 0.501

phosphorylation enrichment for AEFGLYAAMVR [VSX2_Y222_G223A_YF] is 2.44

phosphorylation enrichment for SAPDSYIRIGN [SLC38A4_Y27_G29R] is 0.357

phosphorylation enrichment for KANEFYPVVII [ADAMTS18_Y765_L769I_YF] is 0.458

phosphorylation enrichment for TSNQEYLFLSM [FGFR1_Y766_D768Y_YF] is 0.574

phosphorylation enrichment for RYVTRHIYNRE [HLA-DQB1_Y62_Y62H] is 0.73

phosphorylation enrichment for AVAFLYFKSIG [ADGRL4_Y301_V300L_YF] is 0.483

phosphorylation enrichment for DKANRYFSPNF [PTEN_Y336] is 0.323

phosphorylation enrichment for LLINKYGLSDH [SCP2_Y151_A155D] is 0.678

phosphorylation enrichment for RLTEGYTGPFK [ZNF862_Y181_I178T] is 0.473

---

Target: FGFR1 (UniProt P11362)
Sequence (P11362 whole entry, looked up): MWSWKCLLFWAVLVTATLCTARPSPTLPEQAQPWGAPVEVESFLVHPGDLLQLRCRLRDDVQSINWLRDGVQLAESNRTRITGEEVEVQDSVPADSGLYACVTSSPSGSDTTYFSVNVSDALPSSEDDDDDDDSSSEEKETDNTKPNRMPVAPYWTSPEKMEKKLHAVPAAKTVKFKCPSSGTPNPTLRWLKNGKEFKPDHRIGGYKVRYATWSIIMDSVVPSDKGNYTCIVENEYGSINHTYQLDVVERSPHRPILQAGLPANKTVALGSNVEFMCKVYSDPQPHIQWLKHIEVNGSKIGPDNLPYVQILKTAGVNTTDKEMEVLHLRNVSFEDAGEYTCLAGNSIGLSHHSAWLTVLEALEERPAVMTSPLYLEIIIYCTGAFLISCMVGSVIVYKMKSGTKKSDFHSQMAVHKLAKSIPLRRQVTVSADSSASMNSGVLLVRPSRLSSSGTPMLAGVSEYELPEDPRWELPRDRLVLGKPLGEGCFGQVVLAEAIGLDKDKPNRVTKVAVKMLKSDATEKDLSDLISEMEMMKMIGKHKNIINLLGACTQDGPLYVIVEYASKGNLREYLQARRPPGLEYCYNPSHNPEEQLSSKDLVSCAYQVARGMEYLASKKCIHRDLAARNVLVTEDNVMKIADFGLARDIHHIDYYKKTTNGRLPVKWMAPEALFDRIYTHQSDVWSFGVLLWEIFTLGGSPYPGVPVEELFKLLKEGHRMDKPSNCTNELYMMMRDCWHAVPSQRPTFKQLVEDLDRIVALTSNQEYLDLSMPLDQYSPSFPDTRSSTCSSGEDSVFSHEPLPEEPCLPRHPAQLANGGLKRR
Assay: phosphorylation enrichment, bacterial display (enrichment ratio); higher = better substrate or ligand; peptides without Tyr show the background
Class field: derived from phosphorylation enrichment; ranges I (below 0.5), II (0.5 to below 0.8), III (0.8 or more)

Prompt: Class (by measured phosphorylation enrichment) for AFGGGYGGVLT [KRT19_Y65_YF]
Response: I

Prompt: Class (by measured phosphorylation enrichment) for TLKVGYTEKQR [EPHA3_Y659]
Response: I

Prompt: Class (by measured phosphorylation enrichment) for ALRASYTPSPA [ESS2_Y418]
Response: I

Prompt: Class (by measured phosphorylation enrichment) for HVLEEYKPKQG [SAXO2_Y37_P34L]
Response: II

Prompt: Class (by measured phosphorylation enrichment) for EREYKYGAHNY [OAT_Y50]
Response: I

Prompt: Class (by measured phosphorylation enrichment) for TPIFPYLLPKS [PLD2_Y580_T577I_YF]
Response: III

Prompt: Class (by measured phosphorylation enrichment) for TLEKYYFAFPG [SLC1A1_Y51_F50Y]
Response: III

Prompt: Class (by measured phosphorylation enrichment) for AELVQYYMEHH [PTPN11_Y80]
Response: III

Prompt: Class (by measured phosphorylation enrichment) for PTYKHYANSTQ [SLC12A3_Y70_E68K]
Response: II

Prompt: Class (by measured phosphorylation enrichment) for GKGGSYSKAEW [HLA-E_Y341]
Response: I

Prompt: Class (by measured phosphorylation enrichment) for CNPLCYPTIMI [OR6K6_Y160_R159C]
Response: III

Prompt: Class (by measured phosphorylation enrichment) for `LANNEYYFQVC`
Response: III

Prompt: Class (by measured phosphorylation enrichment) for ALAHKYDGGGG [HBB_Y146_H147D]
Response: II

Prompt: Class (by measured phosphorylation enrichment) for RLEPVYFVAPA [LAMC2_Y250_D247E]
Response: III

Prompt: Class (by measured phosphorylation enrichment) for EILDVYIFLGP [GAA_Y340_G335E]
Response: III

Prompt: Class (by measured phosphorylation enrichment) for ESLRPYDVMDV [KCNQ2_Y562]
Response: I

Prompt: Class (by measured phosphorylation enrichment) for FADGVYQALEE [DUOX2_Y70_YF]
Response: II

Prompt: Class (by measured phosphorylation enrichment) for VFDMLYQLANL [USP24_Y1087]
Response: II

Prompt: Class (by measured phosphorylation enrichment) for TQKLAYVELQQ [CENPF_Y700_M701V]
Response: II

Prompt: Class (by measured phosphorylation enrichment) for VNCHQYDGLVG [ATP2A2_Y407_E412G]
Response: II

Prompt: Class (by measured phosphorylation enrichment) for TLKDVYDDGKY [RPS6KA3_Y483]
Response: II

Prompt: Class (by measured phosphorylation enrichment) for KAEELYIGVTV [EFHC2_Y509]
Response: III

Prompt: Class (by measured phosphorylation enrichment) for IRTIDYRYTVW [IDS_Y497]
Response: II

Prompt: Class (by measured phosphorylation enrichment) for RAEAPYLLVSN [LRIG1_Y1054_Q1053P]
Response: III

Prompt: Class (by measured phosphorylation enrichment) for SGVSYYINLCQ [IGF2R_Y2025_N2020S]
Response: II

Prompt: Class (by measured phosphorylation enrichment) for NAGDFYDLFGG [PTPN11_Y63_T59A_YF]
Response: I

Prompt: Class (by measured phosphorylation enrichment) for `SKDSAYVTWEP`
Response: III

Prompt: Class (by measured phosphorylation enrichment) for QCTSAYPLQPE [NANS_Y188]
Response: II

Prompt: Class (by measured phosphorylation enrichment) for ESKKHYGFSLF [ANXA3_Y295_F291S_YF]
Response: II

Prompt: Class (by measured phosphorylation enrichment) for ITLPIYTKESE [ANK2_Y1455]
Response: II

Prompt: Class (by measured phosphorylation enrichment) for QMVGMYASSYM [AVPR2_Y124]
Response: II

Prompt: Class (by measured phosphorylation enrichment) for GLETSYIEDNC [PAH_Y24_Q20L]
Response: II

Prompt: Class (by measured phosphorylation enrichment) for LNPDGYKKAYE [CPXM2_Y427_E428K]
Response: III

Prompt: Class (by measured phosphorylation enrichment) for SEPDLYFDPRG [PKP1_Y160_C161Y_YF]
Response: III

Prompt: Class (by measured phosphorylation enrichment) for MPLTKYLKRIK [CNGB3_Y200_E199K]
Response: I

Prompt: Class (by measured phosphorylation enrichment) for DNEALYDICFC [TUBB3_Y208_R213C]
Response: II

Prompt: Class (by measured phosphorylation enrichment) for SQGRQYQELPR [KCNH2_Y1009_R1005Q]
Response: I

Prompt: Class (by measured phosphorylation enrichment) for PDGVEYLKNDP [GRIN3A_Y831]
Response: II

Prompt: Class (by measured phosphorylation enrichment) for CEETFYTMKMN [MASP2_Y401_V405M]
Response: II

Prompt: Class (by measured phosphorylation enrichment) for GEAEQYVGGGG [FAT4_Y4980]
Response: II

Prompt: Class (by measured phosphorylation enrichment) for RREWFYEVIIV [BACE1_Y260_YF]
Response: II

Prompt: Class (by measured phosphorylation enrichment) for CTTIHHNYMCN [TP53_Y234_Y234H]
Response: II

Prompt: Class (by measured phosphorylation enrichment) for DAICYYRMENA [NPHS2_Y195]
Response: III

Prompt: Class (by measured phosphorylation enrichment) for RFLRGYRQHAY [HLA-A_Y137_D140H]
Response: II
